B1: FEM1B (parent)
chain: TLAALLLNRSESDIRYLLGYVSQQ

- Variants of: B1
- procedure.details: protein stability index of a GFP-peptide fusion (GPS, HEK-293T) (PSI 1-6); higher = more stable;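 also: lentivirally expressed fusions sorted by FACS into six bins by GFP to DsRed ratio, PSI derived from sequencing read proportions per bin multiplied by bin number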
- condition.parameters: c terminus: a fixed tail appended
value.kind: protein stability index

[[record]]
variant_id = "N8C"
value_kind = "protein stability index"
reading = 4.47

[[record]]
variant_id = "S22Q"
value_kind = "protein stability index"
reading = 3.56

[[record]]
variant_id = "S10Y"
value_kind = "protein stability index"
reading = 2.41

[[record]]
variant_id = "I14Q"
value_kind = "protein stability index"
reading = 2.35

[[record]]
variant_id = "S12W"
value_kind = "protein stability index"
reading = 3.62

[[record]]
variant_id = "D13V"
value_kind = "protein stability index"
reading = 3.19

[[record]]
variant_id = "S10E"
value_kind = "protein stability index"
reading = 3.2

[[record]]
variant_id = "S22L"
value_kind = "protein stability index"
reading = 3.22

[[record]]
variant_id = "A3T"
value_kind = "protein stability index"
reading = 2.18

[[record]]
variant_id = "S10F"
value_kind = "protein stability index"
reading = 3.1

[[record]]
variant_id = "S22G"
value_kind = "protein stability index"
reading = 2.98

[[record]]
variant_id = "R15I"
value_kind = "protein stability index"
reading = 2.81

[[record]]
variant_id = "G19E"
value_kind = "protein stability index"
reading = 2.37

[[record]]
variant_id = "L6R"
value_kind = "protein stability index"
reading = 1.76

[[record]]
variant_id = "D13A"
value_kind = "protein stability index"
reading = 2.76

[[record]]
variant_id = "L2R"
value_kind = "protein stability index"
reading = 1.84

[[record]]
variant_id = "L2M"
value_kind = "protein stability index"
reading = 2.24

[[record]]
variant_id = "V21Y"
value_kind = "protein stability index"
reading = 2.32

[[record]]
variant_id = "L5I"
value_kind = "protein stability index"
reading = 3.24

[[record]]
variant_id = "N8A"
value_kind = "protein stability index"
reading = 2.48

[[record]]
variant_id = "R15F"
value_kind = "protein stability index"
reading = 3.37

[[record]]
variant_id = "L18W"
value_kind = "protein stability index"
reading = 3.01

